biological target: Human Vitamin D Binding Protein (hDBP) (Homo sapiens, UniProt P02774); assay: Affinity for Human Vitamin D Binding Protein (hDBP), displacement of [3H]1α,25(OH)2D3; conditions: relative affinity from concentration displacing 50% of [3H]1α,25(OH)2D3, 1α,25(OH)2D3 assigned 100%, 4° C.
Sequence (P02774 17-474): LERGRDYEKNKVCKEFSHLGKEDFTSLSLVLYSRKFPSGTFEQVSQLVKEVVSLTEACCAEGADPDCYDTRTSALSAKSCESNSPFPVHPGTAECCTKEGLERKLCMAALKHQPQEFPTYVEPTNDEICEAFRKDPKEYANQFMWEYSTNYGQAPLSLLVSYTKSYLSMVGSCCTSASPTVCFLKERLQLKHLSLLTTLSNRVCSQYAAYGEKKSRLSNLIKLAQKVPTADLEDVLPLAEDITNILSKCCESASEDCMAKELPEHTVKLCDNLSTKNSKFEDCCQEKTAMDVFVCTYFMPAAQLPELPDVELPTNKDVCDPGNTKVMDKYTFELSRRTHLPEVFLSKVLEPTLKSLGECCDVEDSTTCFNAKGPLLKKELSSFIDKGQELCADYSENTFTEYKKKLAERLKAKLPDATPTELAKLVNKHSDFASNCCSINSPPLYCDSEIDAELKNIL
hDBP binding %: recorded values
Number in %, nothing else.

Look up hDBP binding %: `CC(C)(O)CCC[C@@H]1CC[C@]2(CCC/C(=C\C=C3C[C@@H](O)C[C@H](O)C3)C2)C1`
3

Fill in: hDBP binding % of `CC(C)(O)CCC[C@@H]1CC[C@]2(CCC/C(=C/C=C3C[C@@H](O)C[C@H](O)C3)C2)C1` is ___
3

Dear colleague, I am looking for the recorded hDBP binding % of the following compound: `CC(C)(O)CCC[C@H]1CC[C@]2(CCC/C(=C/C=C3C[C@@H](O)C[C@H](O)C3)C2)C1`
0

Quick check: hDBP binding % of CC(C)(O)CCCC1CCC2(CCC/C(=C/C=C3C[C@@H](O)C[C@H](O)C3)C2)C1 (stereo in doubt) ?
3

Here is the next item to consider.
What hDBP binding % value was documented for this compound, `CC(C)(O)CCC[C@H]1CC[C@@]2(CCC/C(=C\C=C3C[C@@H](O)C[C@H](O)C3)C2)C1` ?
0

---

biological target: Vitamin D Receptor (VDR) (Sus scrofa, UniProt A3RGC1); conditions: relative affinity from concentration displacing 50% of [3H]1α,25(OH)2D3; 1α,25(OH)2D3 assigned 100%; 4° C., 20 hours
Sequence (A3RGC1 whole entry): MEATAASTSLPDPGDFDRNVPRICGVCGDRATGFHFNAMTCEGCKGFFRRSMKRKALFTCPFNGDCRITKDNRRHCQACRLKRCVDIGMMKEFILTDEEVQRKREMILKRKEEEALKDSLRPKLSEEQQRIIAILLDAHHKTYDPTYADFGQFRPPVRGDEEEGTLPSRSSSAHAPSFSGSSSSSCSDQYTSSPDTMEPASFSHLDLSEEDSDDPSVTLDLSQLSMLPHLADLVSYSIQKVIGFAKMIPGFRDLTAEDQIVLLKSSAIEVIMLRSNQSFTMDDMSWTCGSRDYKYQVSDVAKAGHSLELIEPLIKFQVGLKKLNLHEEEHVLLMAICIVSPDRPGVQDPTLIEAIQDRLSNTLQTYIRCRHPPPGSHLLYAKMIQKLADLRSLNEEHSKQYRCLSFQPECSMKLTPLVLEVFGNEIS
Overview of recorded VDR binding % for various molecules

These solved cases illustrate the format of a correct answer.
For the molecule `CC(C)(O)CCC[C@@H]1CC[C@]2(CCC/C(=C\C=C3C[C@@H](O)C[C@H](O)C3)C2)C1` , what VDR binding % is on record?
10%

Entry `CC(C)(O)CCC[C@H]1CC[C@]2(CCC/C(=C/C=C3C[C@@H](O)C[C@H](O)C3)C2)C1` : reported VDR binding % = ?
0%

Value lookup for VDR binding %; key = `CC(C)(O)CCC[C@H]1CC[C@@]2(CCC/C(=C\C=C3C[C@@H](O)C[C@H](O)C3)C2)C1`
0.7%

Bench note: what VDR binding % did CC(C)(O)CCCC1CCC2(CCC/C(=C/C=C3C[C@@H](O)C[C@H](O)C3)C2)C1 (stereo in doubt) show?
0.4%

Given the molecule `CC(C)(O)CCC[C@@H]1CC[C@]2(CCC/C(=C/C=C3C[C@@H](O)C[C@H](O)C3)C2)C1` , what is its reported VDR binding %?
0.8%

New cases:
Find the recorded VDR binding % belonging to `CC(C)(O)CCC[C@H]1CC[C@@]2(CCC/C(=C/C=C3C[C@@H](O)C[C@H](O)C3)C2)C1` and report it.
0%

For the molecule shown here, CC(C)(O)CCC[C@H]1CC[C@]2(CCC/C(=C\C=C3C[C@@H](O)C[C@H](O)C3)C2)C1 [(1R,3R)-5-{2-[(2S,5R)-2-(4-Hydroxy-4-methyl-pentyl)-spiro[4.] , give the reported VDR binding %.
0.8%

Could you tell me which VDR binding % is on file for CC(C)(O)CCC[C@H]1CC[C@]2(CCC/C(=C\C=C3C[C@@H](O)C[C@H](O)C3)C2)C1 [(1R,3R)-5-{2-[(2R,5S)-2-(4-Hydroxy-4-methyl-pentyl)-spiro[4.] ?
0.4%
